pKi values recorded for Muscarinic acetylcholine receptor M2 (Homo sapiens)
pKi: −log10 of the molar value.
Measured Parameter: pKi

>>> reading("CN(C)CCNC(=O)C1=C/C(=C\\c2cccnc2)c2ccccc21")
4.53
>>> reading("CN(C)CCOC(=O)C1=C/C(=C\\c2ccncc2)c2ccccc21")
4.98
>>> reading("CC(C1=C(CCN(C)C)Cc2ccccc21)c1ccccn1 (stereo not drawn)")
7.35
>>> reading("CN(C)CCOC(=O)C1=C/C(=C\\c2ccccn2)c2ccccc21")
4.92
>>> reading("CN(C)CCOC(=O)C1=C/C(=C\\c2cccnc2)c2ccccc21")
5.13
>>> reading("CN(C)CCNC(=O)C1=C/C(=C\\c2ccccn2)c2ccccc21")
4.38
>>> reading("CC1OC(=O)[C@H]2C[C@H]3CCCC[C@@H]3[C@@H](/C=C/C3CCCC(C)N3C)[C@@H]12 (single isomer, unassigned)")
8.00
>>> reading("CN(C)CCNC(=O)C1=C/C(=C\\c2ccncc2)c2ccccc21")
4.80
>>> reading("CN(C)CCC1=C/C(=C\\c2cccnc2)c2ccccc21")
4.82
>>> reading("CN(C)CCN(C)C(=O)C1=C/C(=C\\c2cccnc2)c2ccccc21")
4.85
>>> reading("CN(C)CCC1=C/C(=C\\c2ccccn2)c2ccccc21")
4.90
>>> reading("CN(C)CCN(C)C(=O)C1=C/C(=C\\c2ccccn2)c2ccccc21")
5.04
>>> reading("CN1CCN(C(=O)C2=C/C(=C\\c3ccncc3)c3ccccc32)CC1")
4.41

====

# Subject Of Test: Muscarinic acetylcholine receptor M5 (Homo sapiens, UniProt P08912)
# Sequence (P08912 whole entry): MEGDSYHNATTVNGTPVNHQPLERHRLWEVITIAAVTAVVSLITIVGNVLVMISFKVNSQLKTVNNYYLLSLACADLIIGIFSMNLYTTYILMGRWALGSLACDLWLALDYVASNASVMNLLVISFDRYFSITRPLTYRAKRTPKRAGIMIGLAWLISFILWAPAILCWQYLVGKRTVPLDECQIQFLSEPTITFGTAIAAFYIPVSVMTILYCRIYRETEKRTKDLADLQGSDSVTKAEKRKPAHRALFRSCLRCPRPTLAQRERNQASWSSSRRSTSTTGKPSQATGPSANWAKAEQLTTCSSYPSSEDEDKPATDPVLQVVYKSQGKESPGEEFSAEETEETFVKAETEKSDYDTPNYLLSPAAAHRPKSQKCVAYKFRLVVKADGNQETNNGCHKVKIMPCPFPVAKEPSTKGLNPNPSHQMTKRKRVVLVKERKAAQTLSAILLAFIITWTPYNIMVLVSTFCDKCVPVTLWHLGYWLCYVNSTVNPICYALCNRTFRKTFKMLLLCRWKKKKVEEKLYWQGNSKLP
Measured Parameter: Ki

>>> reading("CN(C)CCNC(=O)C1=C/C(=C\\c2ccccn2)c2ccccc21")
"55 µM"
>>> reading("CN(C)CCOC(=O)C1=C/C(=C\\c2ccncc2)c2ccccc21")
"26.9 µM"
>>> reading("CN(C)CCOC(=O)C1=C/C(=C\\c2cccnc2)c2ccccc21")
"30.2 µM"
>>> reading("CN(C)CCC1=C/C(=C\\c2cccnc2)c2ccccc21")
"26.9 µM"
>>> reading("CN(C)CCNC(=O)C1=C/C(=C\\c2ccncc2)c2ccccc21")
"53.7 µM"
>>> reading("CN(C)CCNC(=O)C1=C/C(=C\\c2cccnc2)c2ccccc21")
"66.1 µM"
>>> reading("CC(C1=C(CCN(C)C)Cc2ccccc21)c1ccccn1 (stereo not drawn)")
"0.794 µM"
>>> reading("CC1OC(=O)[C@H]2C[C@H]3CCCC[C@@H]3[C@@H](/C=C/C3CCCC(C)N3C)[C@@H]12 (single isomer, unassigned)")
"0.49 µM"
>>> reading("CN1CCN(C(=O)C2=C/C(=C\\c3ccncc3)c3ccccc32)CC1")
"55 µM"
>>> reading("CN(C)CCOC(=O)C1=C/C(=C\\c2ccccn2)c2ccccc21")
"17.8 µM"
>>> reading("CN(C)CCN(C)C(=O)C1=C/C(=C\\c2ccccn2)c2ccccc21")
"52.5 µM"
>>> reading("CN(C)CCC1=C/C(=C\\c2ccccn2)c2ccccc21")
"19.1 µM"
>>> reading("CN(C)CCN(C)C(=O)C1=C/C(=C\\c2cccnc2)c2ccccc21")
"53.7 µM"

====

# Subject Of Test: Muscarinic acetylcholine receptor M3 (Homo sapiens, UniProt P20309)
# Sequence (P20309 whole entry): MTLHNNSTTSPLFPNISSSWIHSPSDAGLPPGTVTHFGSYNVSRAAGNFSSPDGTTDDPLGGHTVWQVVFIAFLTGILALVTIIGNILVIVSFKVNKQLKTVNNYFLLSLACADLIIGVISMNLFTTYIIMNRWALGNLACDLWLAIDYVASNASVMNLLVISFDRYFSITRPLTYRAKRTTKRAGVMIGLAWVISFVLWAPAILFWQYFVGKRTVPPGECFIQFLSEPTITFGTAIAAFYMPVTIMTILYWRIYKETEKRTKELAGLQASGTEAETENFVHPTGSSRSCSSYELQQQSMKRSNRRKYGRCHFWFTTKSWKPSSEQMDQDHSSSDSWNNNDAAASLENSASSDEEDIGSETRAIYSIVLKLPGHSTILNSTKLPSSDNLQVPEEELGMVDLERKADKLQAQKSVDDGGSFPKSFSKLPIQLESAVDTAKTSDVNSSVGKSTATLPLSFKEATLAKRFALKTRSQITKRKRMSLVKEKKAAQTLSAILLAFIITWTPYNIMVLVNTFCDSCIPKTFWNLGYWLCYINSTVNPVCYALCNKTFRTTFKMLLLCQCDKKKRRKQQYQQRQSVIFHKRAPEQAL
pKi: −log10 of the molar value.
Assign class by pKi: not lower than 5 means Fulfilled; lower than 5 means Not fulfilled.

>>> classification("CN1CCN(C(=O)C2=C/C(=C\\c3ccncc3)c3ccccc32)CC1")
"Not fulfilled"
>>> classification("CC(C1=C(CCN(C)C)Cc2ccccc21)c1ccccn1 (stereo unspecified)")
"Fulfilled"
>>> classification("CN(C)CCN(C)C(=O)C1=C/C(=C\\c2ccccn2)c2ccccc21")
"Not fulfilled"
>>> classification("CN(C)CCNC(=O)C1=C/C(=C\\c2ccncc2)c2ccccc21")
"Not fulfilled"
>>> classification("CN(C)CCNC(=O)C1=C/C(=C\\c2cccnc2)c2ccccc21")
"Not fulfilled"
